The binders listed here are annotated with their EC50.
- Subject Of Test: T1, human 5T4-His protein (human, UniProt Q13641 32-355)
- T1 construct: also called recombinant 5T4 protein (human 5T4-his tag); human 5T4 protein; not shown: His tag
- T1 sequence (looked up): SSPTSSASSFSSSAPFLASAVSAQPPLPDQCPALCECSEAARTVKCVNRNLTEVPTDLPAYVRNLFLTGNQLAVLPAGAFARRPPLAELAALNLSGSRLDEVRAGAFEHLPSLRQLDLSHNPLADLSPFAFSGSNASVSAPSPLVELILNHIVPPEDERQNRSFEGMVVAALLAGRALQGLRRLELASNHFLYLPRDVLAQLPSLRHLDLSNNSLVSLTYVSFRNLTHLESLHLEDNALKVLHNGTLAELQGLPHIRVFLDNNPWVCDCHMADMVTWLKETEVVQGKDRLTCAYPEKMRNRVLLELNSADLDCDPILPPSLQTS
- Measurement Protocol: ELISA, coated 5T4-His
Could you give me the number in nM? Just the number is fine.

Sample answers from the record:
Hu159D5-1 (antibody, V domains shown, humanized) VH: EVQLVESGGGVVQPGRSLRLSCAASGFTFSNFGMHWVRQAPGKGLEWVAYISSGSSTFYYADSVKGRFTISRDNSKNTLYLQMNSLRAEDTAVYYCARSPAYYRYGLDYWGQGTTVTVSS VL: DIVMTQTPLSLSVTPGQPASISCRASQSVSSSTFSYMHWYQQKPGQPPQLLIYSSSNLESGVPDRFSGSGSGTDFTLKISRVEAEDVGVYYCQHSWEIPYTFGGGTKVEIK :: 0.088
159D5 chimeric antibody (antibody, V domains shown, chimeric mAb) VH: DVQLVESGGGLVQPGGSRKLSCTASGFTFSNFGMHWVRQAPETGLEWVAYISSGSSTFYYADSVKGRFTISRDNPKNTLFLQMTSLRSEDTAMYFCARSPAYYRYGLDYWGQGTTLTVSS VL: DIVLTQSPASLAVSLGQRATISCRASQSVSSSTFSYMHWYQQKPGQPPKLLIKSSSNLESGVPARFSGSGSGTDFTLNIHPVEEEDTATYYCQHSWEIPYTFGGGTKLEIK :: 0.13

Now, please, on to the next binder.
Sample Hu159D5-4 (antibody, V domains shown, humanized) VH: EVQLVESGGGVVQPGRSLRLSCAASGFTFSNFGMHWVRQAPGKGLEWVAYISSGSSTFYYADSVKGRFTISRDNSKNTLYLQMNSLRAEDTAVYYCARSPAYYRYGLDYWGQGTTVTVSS VL: DIVMTQSPDSLAVSLGERATINCRASQSVSSSTFSYMHWYQQKPGQPPKLLIYSSSNLESGVPDRFSGSGSGTDFTLTISSLQAEDVAVYYCQHSWEIPYTFGGGTKVEIK ; EC50 observed: 0.094

Measured values drawn from patent US20250154277A1 for this set.
